tested_system: Human immunodeficiency virus type 1 protease (Human immunodeficiency virus 1, UniProt Q72874)
measured_attribute: Ki

smiles_entry	reported_value
O=C1N(Cc2ccccc2)C[C@H](O)[C@@H](Cc2ccccc2)N1Cc1ccccc1	11 µM
O=C1[C@@H](Cc2ccccc2)C[C@@H](O)[C@@H](Cc2ccccc2)N1Cc1ccccc1	9.4 µM
O=C1N(Cc2ccccc2)C[C@@H](O)[C@@H](Cc2ccccc2)N1Cc1ccccc1	0.0025 µM
O=C1N[C@H](CCc2ccccc2)[C@@H](O)[C@@H](Cc2ccccc2)N1Cc1ccccc1	0.066 µM

Attribution: ChEMBL document CHEMBL1129849
